# ASSAY_SUMMARY: Cytotoxicity against Homo sapiens (human) prostate cancer cells after 48 hr by SRB assay
# Assay type: functional
# CONDITION_SUMMARY: Cancer cell lines
I'd appreciate it if you could supply GI50 values for the items below.

| SMILES_NOTATION | RESULT |
| --- | --- |
| NS(=O)(=O)c1ccc(-n2nc(-c3ccc(Cl)cc3)cc2-c2cc(O)ccc2O)cc1 | 13.4 µM |
| Cc1nn(-c2ccc(Br)cc2)c(C)c1CC(=O)c1cc(O)ccc1O | 12.4 µM |
| Oc1ccc(O)c(-c2cc(-c3ccccc3)nn2-c2ccccc2)c1 | 16.7 µM |

Then this compound:
Entry `CC(=O)NS(=O)(=O)c1ccc(-n2nc(-c3ccc(Cl)cc3)cc2-c2cc(O)ccc2O)cc1` , GI50 reported as 17.7 µM

###

# ASSAY_SUMMARY: Cytotoxicity against Homo sapiens (human) breast cancer cells after 48 hr by SRB assay
# Type: functional
# CONDITION_SUMMARY: Cancer cell lines, pooled result: one value given for 9 cell lines, strains, targets or settings
ASSAY_METRIC: LC50 (concentration giving 50% net cell kill) (µM)
One number for each entry, in µM.

Example entries and their recorded answers appear below.
| COMPOUND | RECORDED_NUMBER |
| --- | --- |
| COc1ccc(OC)c(-c2cc(-c3ccc(Cl)cc3)nn2-c2ccccc2)c1 | 99.8 |
| Cc1nn(-c2ccc(Br)cc2)c(C)c1CC(=O)c1cc(O)ccc1O | 48.8 |
| Cc1ccc(-c2cc(C3=CC(=O)C=CC3=O)n(-c3ccc(S(N)(=O)=O)cc3)n2)cc1 | 99.2 |
| COc1ccc(OC)c(-c2cc(-c3ccc(Cl)cc3)nn2-c2ccc(S(N)(=O)=O)cc2)c1 | 74.7 |
| NS(=O)(=O)c1ccc(-n2nc(-c3ccccc3)cc2-c2cc(O)ccc2O)cc1 | 100 |

Dear colleague, could you send me LC50 (concentration giving 50% net cell kill) for each of the items below? Thanks.
1. CC(=O)NS(=O)(=O)c1ccc(-n2nc(-c3ccccc3)cc2-c2cc(O)ccc2O)cc1
2. Oc1ccc(O)c(-c2cc(-c3ccc(Cl)cc3)nn2-c2ccccc2)c1
3. O=C1C=CC(=O)C(c2cc(-c3ccc(Cl)cc3)nn2-c2ccccc2)=C1
4. Oc1ccc(O)c(-c2cc(-c3ccccc3)nn2-c2ccccc2)c1
5. COc1ccc(OC)c(-c2cc(-c3ccccc3)nn2-c2ccc(S(N)(=O)=O)cc2)c1
6. CC(=O)NS(=O)(=O)c1ccc(-n2nc(-c3ccc(Cl)cc3)cc2-c2cc(O)ccc2O)cc1
7. CC1=NN(c2ccc(Br)cc2)C(=O)C1CC(=O)c1cc(O)ccc1O (configuration not stated)

[100, 76.1, 95.6, 91.3, 73, 91.2, 49.6]

###

# ASSAY_SUMMARY: Cytotoxicity against Homo sapiens (human) ovarian cancer cells after 48 hr by SRB assay
# Assay type: functional
# CONDITION_SUMMARY: Cancer cell lines
ASSAY_METRIC: TGI (µM)
Give bare numbers, in µM.

| COMPOUND | TGI [µM] |
| --- | --- |
| CC(=O)NS(=O)(=O)c1ccc(-n2nc(-c3ccc(Cl)cc3)cc2-c2cc(O)ccc2O)cc1 | 81.2 |
| COc1ccc(OC)c(-c2cc(-c3ccc(Cl)cc3)nn2-c2ccc(S(N)(=O)=O)cc2)c1 | 50.8 |
| CC1=NN(c2ccc(Br)cc2)C(=O)C1CC(=O)c1cc(O)ccc1O (stereo not given) | 50 |

Would you mind listing TGI for each of the following compounds?
1. COc1ccc(OC)c(-c2cc(-c3ccccc3)nn2-c2ccc(S(=O)(=O)NC(C)=O)cc2)c1
2. Oc1ccc(O)c(-c2cc(-c3ccccc3)nn2-c2ccccc2)c1
3. Cc1ccc(-c2cc(C3=CC(=O)C=CC3=O)n(-c3ccc(S(N)(=O)=O)cc3)n2)cc1
4. COc1ccc(OC)c(-c2cc(-c3ccc(Cl)cc3)nn2-c2ccc(S(=O)(=O)NC(C)=O)cc2)c1
5. O=C1C=CC(=O)C(c2cc(-c3ccc(Cl)cc3)nn2-c2ccccc2)=C1
6. CC(=O)NS(=O)(=O)c1ccc(-n2nc(-c3ccccc3)cc2C2=CC(=O)C=CC2=O)cc1

1: 50.7; 2: 75.2; 3: 100; 4: 67.1; 5: 81.7; 6: 100

Reported TGI for `Oc1ccc(O)c(-c2cc(-c3ccc(Cl)cc3)nn2-c2ccccc2)c1` was 60.4
